Origin of measurements: paper PMC5667929

- target_entity: AbdA (Hox);Exd/Hth-HM;Grh (Drosophila melanogaster?;Drosophila …, UniProt P29555;P40427;O46339;P13002 261-590;1-376;127-211;551-1333, ||)
- Sequence (P29555 261-590, chain 1 of 4): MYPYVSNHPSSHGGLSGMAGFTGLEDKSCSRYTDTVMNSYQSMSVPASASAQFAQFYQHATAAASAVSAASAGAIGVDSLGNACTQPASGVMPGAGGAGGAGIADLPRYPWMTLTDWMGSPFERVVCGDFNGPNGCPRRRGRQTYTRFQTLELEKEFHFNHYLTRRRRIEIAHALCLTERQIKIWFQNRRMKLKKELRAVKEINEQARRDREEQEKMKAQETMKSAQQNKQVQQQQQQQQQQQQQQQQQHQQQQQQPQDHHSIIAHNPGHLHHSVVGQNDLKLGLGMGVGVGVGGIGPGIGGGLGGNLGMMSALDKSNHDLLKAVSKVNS
- Sequence (P40427 whole entry, chain 2 of 4): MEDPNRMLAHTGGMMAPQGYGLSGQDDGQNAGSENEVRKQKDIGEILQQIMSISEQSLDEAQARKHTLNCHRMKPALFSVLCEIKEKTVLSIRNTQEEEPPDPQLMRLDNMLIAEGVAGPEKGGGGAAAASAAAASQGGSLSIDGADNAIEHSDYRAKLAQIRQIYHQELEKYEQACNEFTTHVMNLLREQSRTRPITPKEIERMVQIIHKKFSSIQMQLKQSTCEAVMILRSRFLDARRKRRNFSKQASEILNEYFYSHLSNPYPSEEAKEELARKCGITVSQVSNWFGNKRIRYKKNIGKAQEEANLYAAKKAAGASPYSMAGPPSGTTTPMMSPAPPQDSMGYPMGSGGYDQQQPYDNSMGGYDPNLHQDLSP
- Sequence (O46339 127-211, chain 3 of 4): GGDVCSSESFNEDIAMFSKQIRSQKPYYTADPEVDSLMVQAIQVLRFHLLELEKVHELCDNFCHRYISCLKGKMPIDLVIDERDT
- Sequence (P13002 551-1333, chain 4 of 4): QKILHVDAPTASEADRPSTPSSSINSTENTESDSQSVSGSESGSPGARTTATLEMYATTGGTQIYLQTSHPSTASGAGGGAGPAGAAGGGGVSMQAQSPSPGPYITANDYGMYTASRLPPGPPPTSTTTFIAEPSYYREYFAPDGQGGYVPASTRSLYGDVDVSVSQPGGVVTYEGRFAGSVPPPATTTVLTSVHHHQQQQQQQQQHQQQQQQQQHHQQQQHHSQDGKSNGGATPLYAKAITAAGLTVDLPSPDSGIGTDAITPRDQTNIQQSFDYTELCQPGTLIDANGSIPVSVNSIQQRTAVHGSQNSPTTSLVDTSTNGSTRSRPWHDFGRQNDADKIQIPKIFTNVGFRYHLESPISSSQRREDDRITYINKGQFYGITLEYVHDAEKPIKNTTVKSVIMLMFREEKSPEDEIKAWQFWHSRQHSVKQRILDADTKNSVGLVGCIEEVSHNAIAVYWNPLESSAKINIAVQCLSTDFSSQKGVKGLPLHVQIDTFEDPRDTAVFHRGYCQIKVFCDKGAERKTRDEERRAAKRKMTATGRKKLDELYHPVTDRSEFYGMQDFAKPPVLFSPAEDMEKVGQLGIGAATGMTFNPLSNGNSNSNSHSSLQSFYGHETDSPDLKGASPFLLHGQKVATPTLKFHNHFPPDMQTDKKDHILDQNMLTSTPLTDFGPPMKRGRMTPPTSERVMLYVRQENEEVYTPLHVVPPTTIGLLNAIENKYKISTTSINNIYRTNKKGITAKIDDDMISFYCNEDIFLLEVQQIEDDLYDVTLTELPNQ
- test_summary: EMSA; EMSA, 20 ul, 30 min, room temperature; 5X buffer as printed: 20% glycerol, 1 mg/ml BSA, 2.5 mM EDTA, '50mM 1M tris' pH 7.5, 50 mM KCl, 5 mM MgCl2, 2.5 mM DTT, 90 ug/ml poly(dI-dC); proteins 100-200 ng
- reported_conditions: protein: recombinant;recombinant;recombinant; tags: 6xHis;6xHis;6xHis; copies: 1;1;1;2
measured_metric: binding result

* motif-28 (dsDNA) DNA 1: AAGCCGAGCCTGAATCAGGTACTCAAATTGTCGC DNA 2: GCGACAATTTGAGTACCTGATTCAGGCTCGGCTT | no binding
* motif-30 WT (dsDNA) DNA 1: GAAACAGGATAACCATAACTAATCC DNA 2: GGATTAGTTATGGTTATCCTGTTTC | binds
* motif-30 Hox1+2 mutant (dsDNA) DNA 1: GAAACAGGAGAACCAGGACTAATCC DNA 2: GGATTAGTCCTGGTTCTCCTGTTTC | no binding
